This collection of values is drawn from the supplement of paper PMC6555819.

tested on: RARb homodimer (NR concentration 270 nM); assay: PBM binding z-score (relative to random genomic background probes); higher = stronger binding; sequences stand for … in GC…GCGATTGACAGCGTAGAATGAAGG

| sequenceEntry | PBM binding z-score |
| --- | --- |
| AGAACGAGGTTACCAAAGATCAGGGAAACGCTTG | 0.645 |
| TGTCAAAGATCAAAGGTAACGTAAGTATCCACAC | 0.261 |
| GATACAGGATCAAGGCCAGAGTACGCGTATTGAT | 0.0211 |
| TAGCCTAGGTCAGATCGGGCCAGTAAACGCTATA | 1.72 |
| TCGAGTAGGTCACCAATGGGGCATTCAGCTTTCT | 3.59 |
| CCTCGGAGGACAGAAGGTCAGAGATGTCCGCTTT | 3.39 |
| AATACAGGGTCATCGTAGGCCAGAGCACGCACAG | 3.55 |
| GGAACGAAGGCAAGTTGATAGCAGAGTTTGATGG | -0.711 |
| TAGCCTAGGTCGTGGGCCAGTATACCACGCGAAC | 0.693 |
| ATATGTAGGTTATCGGGTCATTCACTTTGCGCAT | 3.14 |
| CTCGAAATGTCGTGCTCAGGTGAGTATACCAAAC | 0.0938 |
| CGTCCAAGGTCAGCAGGTCAGTGCAAGCGACGTG | 4.99 |
